# test.description: Partition coefficient, log P of the compound
# Assay type: physicochemical
# experimental.parameters: octanol/water
We label by threshold. Values of logP strictly beneath 4 are 1. Values of 4 and up are -1.

| compound | group.label |
| --- | --- |
| Fc1cccc(F)c1C1=NC(c2ccccc2)CO1 (stereo not drawn) | 1 |
| CCOc1ccccc1C1=NC(c2ccccc2)CO1 (stereo not drawn) | -1 |
| Clc1cccc(C2=NC(c3ccccc3)CO2)c1 (stereo not drawn) | -1 |

Qu. Dear colleague, could you confirm whether logP of O=[N+]([O-])c1ccccc1C1=NC(c2ccccc2)CO1 (stereo not drawn) falls below 4? Thanks.
Ans. 1

----------
# test.description: Partition coefficient, log P of the compound
# Format: physicochemical
# experimental.parameters: octanol/water
Listed here are molecules together with their documented logP.
Format: numeric value only, no unit, no commentary.

Example entries and their recorded answers appear below.
| molecule | logP |
| --- | --- |
| Ic1ccccc1-c1ncco1 | 2.3 |
| Clc1cccc(Cl)c1C1=NC(c2ccccc2)CO1 (stereo not drawn) | 3.69 |

Qu. Supply recorded logP for FC(F)(F)c1ccccc1-c1ncco1 here.
Ans. 2.15

----------
# test.description: Partition coefficient, log P of the compound
# Assay type: physicochemical
# experimental.parameters: octanol/water
We label by threshold. Values of logP strictly beneath 4 are y. Values of 4 and up are n.

| compound | group.label |
| --- | --- |
| CSc1ccccc1C1=NC(c2ccccc2)CO1 (centres undefined) | y |
| Fc1cccc(Cl)c1-c1ncco1 | y |
| COc1ccc(C2=NC(c3ccccc3)CO2)cc1 (centres undefined) | y |
| Clc1ccccc1C1=NC(c2ccccc2)CO1 (centres undefined) | y |
| Ic1ccccc1C1=NC(c2ccccc2)CO1 (centres undefined) | y |

Qu. Dear colleague, could you confirm whether logP of c1ccc(C2=NC(c3ccccc3)CO2)cc1 (centres undefined) falls below 4? Thanks.
Ans. y

----------
# test.description: Partition coefficient, log P of the compound
# Type: physicochemical
# experimental.parameters: octanol/water
property.measured: logP
Format: numeric value only, no unit, no commentary.

| molecule | result.number |
| --- | --- |
| CCSc1ccccc1C1=NC(c2ccccc2)CO1 (stereo not drawn) | 4.04 |
| Cc1ccc(C2=NC(c3ccccc3)CO2)cc1 (stereo not drawn) | 4.11 |
| FC(F)(F)c1ccccc1C1=NC(c2ccccc2)CO1 (stereo not drawn) | 3.71 |
| Fc1ccccc1C1=NC(c2ccccc2)CO1 (stereo not drawn) | 3.51 |
| Cc1ccccc1C1=NC(c2ccccc2)CO1 (stereo not drawn) | 3.68 |
| Fc1cccc(F)c1-c1ncco1 | 1.45 |
| Clc1ccc(C2=NC(c3ccccc3)CO2)c(Cl)c1 (stereo not drawn) | 4.4 |
| Brc1ccccc1C1=NC(c2ccccc2)CO1 (stereo not drawn) | 3.69 |
| c1ccc(Oc2ccccc2C2=NC(c3ccccc3)CO2)cc1 (stereo not drawn) | 5.61 |
| Cc1cccc(C2=NC(c3ccccc3)CO2)c1 (stereo not drawn) | 4.11 |

Qu. Supply recorded logP for Fc1cccc(Cl)c1C1=NC(c2ccccc2)CO1 (stereo not drawn) here.
Ans. 3.45

Qu. Supply recorded logP for O=[N+]([O-])c1ccccc1-c1ncco1 here.
Ans. 1.27

Qu. Supply recorded logP for COc1cccc(C2=NC(c3ccccc3)CO2)c1 (stereo not drawn) here.
Ans. 3.77

Qu. Supply recorded logP for Cc1cccc(C)c1-c1ncco1 here.
Ans. 2.21

Qu. Supply recorded logP for COc1ccccc1C1=NC(c2ccccc2)CO1 (stereo not drawn) here.
Ans. 3.76

Qu. Supply recorded logP for Clc1ccc(Cl)c(C2=NC(c3ccccc3)CO2)c1 (stereo not drawn) here.
Ans. 4.4

Qu. Supply recorded logP for Clc1ccc(C2=NC(c3ccccc3)CO2)cc1 (stereo not drawn) here.
Ans. 4.48

Qu. Supply recorded logP for Clc1cccc(C2=NC(c3ccccc3)CO2)c1Cl (stereo not drawn) here.
Ans. 4.28

Origin of values: ChEMBL document CHEMBL1146854
